assay name: Vorinostat serum pharmacokinetics, cycle 1
Assay type: in vivo
test settings: human, serum, oral, 100 mg, Cmax, Sequential schedule, 100 mg BID, day 9 of cycle 1; mean (St dev)
measured property: Cmax (ng/mL)
Report the value in ng/mL with no unit label.

# query: Cmax of entry O=C(CCCCCCC(=O)Nc1ccccc1)NO [vorinostat, suberoylanilide hydroxamic acid] 165

====

assay name: clinical
Format: in vivo
test settings: human, plasma, intravenous, 10 mg/m2, Cmax, Concurrent schedule, 10 mg/m^2, Day 5; mean (St dev)
measured property: Cmax (ng/mL)
Report the value in ng/mL with no unit label.

# query: Cmax of entry Nc1ncn([C@H]2C[C@H](O)[C@@H](CO)O2)c(=O)n1 [decitabine, 5-aza-2'-deoxycytidine] 62.9

====

assay name: Vorinostat serum pharmacokinetics, cycle 1
Type: in vivo
test settings: human, serum, oral, 200 mg, t1/2, Concurrent schedule, 200 mg BID, day 4 of cycle 1; mean (St dev)
measured property: half-life (h)
Report the value in h with no unit label.

# query: half-life of entry O=C(CCCCCCC(=O)Nc1ccccc1)NO [vorinostat, suberoylanilide hydroxamic acid] 2.39

====

assay name: clinical
Type: in vivo
test settings: human, plasma, intravenous, 20 mg/m2, AUCinf, Sequential schedule, 20 mg/m^2, Day 1; mean (St dev)
measured property: AUC(0-inf) (ng·h/mL)
Report the value in ng·h/mL with no unit label.

# query: AUC(0-inf) of entry Nc1ncn([C@H]2C[C@H](O)[C@@H](CO)O2)c(=O)n1 119

====

assay name: Vorinostat serum pharmacokinetics, cycle 1
Type: in vivo
test settings: human, serum, oral, 200 mg, t1/2, Sequential schedule, 200 mg BID, day 9 of cycle 1; mean (St dev)
measured property: half-life (h)
Report the value in h with no unit label.

# query: half-life of entry O=C(CCCCCCC(=O)Nc1ccccc1)NO [vorinostat, suberoylanilide hydroxamic acid] 2.55

====

assay name: clinical
Format: in vivo
test settings: human, plasma, intravenous, 10 mg/m2, CL, Concurrent schedule, 10 mg/m^2, Day 5; mean (St dev)
measured property: clearance
Your answer should be a number followed by the unit of measure.

# query: clearance of entry Nc1ncn([C@H]2C[C@H](O)[C@@H](CO)O2)c(=O)n1 5570 mL/min

====

assay name: clinical
Assay type: in vivo
test settings: human, plasma, intravenous, 10 mg/m2, Cmax, Sequential schedule, 10 mg/m^2, Day 5; mean (St dev)
measured property: Cmax (ng/mL)
Report the value in ng/mL with no unit label.

# query: Cmax of entry Nc1ncn([C@H]2C[C@H](O)[C@@H](CO)O2)c(=O)n1 67.5

====

assay name: clinical
Type: in vivo
test settings: human, plasma, iv, half-life, patients, 1-hour intravenous infusion
measured property: half-life

# query: half-life of entry Nc1ncn([C@H]2C[C@H](O)[C@@H](CO)O2)c(=O)n1 ~20 min

====

assay name: clinical
Assay type: in vivo
test settings: human, plasma, intravenous, 20 mg/m2, CL, Sequential schedule, 20 mg/m^2, Day 5; mean (St dev)
measured property: clearance
Your answer should be a number followed by the unit of measure.

# query: clearance of entry Nc1ncn([C@H]2C[C@H](O)[C@@H](CO)O2)c(=O)n1 [decitabine, 5-aza-2'-deoxycytidine] 3920 mL/min

====

assay name: clinical
Format: in vivo
test settings: human, plasma, intravenous, 10 mg/m2, t1/2, Sequential schedule, 10 mg/m^2, Day 5; mean (St dev)
measured property: half-life (min)
Report the value in min with no unit label.

# query: half-life of entry Nc1ncn([C@H]2C[C@H](O)[C@@H](CO)O2)c(=O)n1 22.8

src = paper PMC2997755
